tested.target: Vasopressin receptor (Rattus norvegicus, UniProt P48974+P30560+Q00788)
assay: Antiantidiuretic potency in terms of negative logarithm of the effective doses divided by the estimated volume of distribution
Type: functional, Urine
observation.type: pA2

CC[C@@H](C)[C@H]1NC(=O)CC2(CCCCC2)SSC[C@@H](C(=O)NCCNC(=O)[C@@H](N)CCCN=C(N)N)NC(=O)[C@H](CC(N)=O)NC(=O)[C@H](C(C)C)NC(=O)[C@H](Cc2ccccc2)NC1=O : 5.8
CCOc1ccc(C[C@H]2NC(=O)CC3(CCCCC3)SSC[C@@H](C(=O)N3CCC[C@H]3C(=O)NCCNC(=O)[C@H](N)CCCN)NC(=O)[C@H](CC(N)=O)NC(=O)[C@H](C(C)C)NC(=O)[C@H](Cc3ccccc3)NC2=O)cc1 : 7.92
CCOc1ccc(C[C@H]2NC(=O)CC3(CCCCC3)SSC[C@@H](C(=O)N3CCC[C@H]3C(=O)N[C@@H](CCCN=C(N)N)C(=O)NCCN)NC(=O)[C@H](CC(N)=O)NC(=O)[C@H](C(C)C)NC(=O)[C@H](Cc3ccccc3)NC2=O)cc1 : 7.79
CCOc1ccc(C[C@H]2NC(=O)CC3(CCCCC3)SSC[C@@H](C(=O)NCCN)NC(=O)[C@H](CC(N)=O)NC(=O)[C@H](C(C)C)NC(=O)[C@H](Cc3ccccc3)NC2=O)cc1 : 7.07
CCOc1ccc(C[C@H]2NC(=O)CC3(CCCCC3)SSC[C@@H](C(=O)N[C@@H](CCCN=C(N)N)C(=O)NCC(=O)NCCNC(=O)[C@@H](N)CCCN=C(N)N)NC(=O)[C@H](CC(N)=O)NC(=O)[C@H](C(C)C)NC(=O)[C@H](Cc3ccccc3)NC2=O)cc1 : 7.87
CCOc1ccc(C[C@H]2NC(=O)CC3(CCCCC3)SSC[C@@H](C(=O)NCCNC(=O)CN)NC(=O)[C@H](CC(N)=O)NC(=O)[C@H](C(C)C)NC(=O)[C@H](Cc3ccccc3)NC2=O)cc1 : 6.59
CC[C@H](C)[C@@H]1NC(=O)[C@H](Cc2ccccc2)NC(=O)[C@@H](Cc2ccccc2)NC(=O)CC2(CCCCC2)SSC[C@@H](C(=O)N2CCC[C@H]2C(=O)N[C@@H](CCCN=C(N)N)C(=O)NCC(=O)NCCN)NC(=O)[C@H](CC(N)=O)NC1=O : 8.1
CCOc1ccc(C[C@H]2NC(=O)CC3(CCCCC3)SSC[C@@H](C(=O)N[C@@H](CCCN=C(N)N)C(=O)NCC(N)=O)NC(=O)[C@H](CC(N)=O)NC(=O)[C@H](C(C)C)NC(=O)[C@H](Cc3ccccc3)NC2=O)cc1 : 7.82
CCOc1ccc(C[C@H]2NC(=O)CC3(CCCCC3)SSC[C@@H](C(=O)NCCNC(=O)[C@H](N)CCCN=C(N)N)NC(=O)[C@H](CC(N)=O)NC(=O)[C@H](C(C)C)NC(=O)[C@H](Cc3ccccc3)NC2=O)cc1 : 7.95
CCOc1ccc(C[C@H]2NC(=O)CC3(CCCCC3)SSC[C@@H](C(=O)N3CCC[C@H]3C(=O)N[C@@H](CCCN=C(N)N)C(=O)NCCNC(=O)[C@@H](N)CCCN=C(N)N)NC(=O)[C@H](CC(N)=O)NC(=O)[C@H](C(C)C)NC(=O)[C@H](Cc3ccccc3)NC2=O)cc1 : 7.68
CCOc1ccc(C[C@H]2NC(=O)CC3(CCCCC3)SSC[C@@H](C(=O)N3CCC[C@H]3C(=O)N[C@@H](CCCN=C(N)N)C(=O)NCCNC(=O)[C@@H](N)CCCN=C(N)N)NC(=O)[C@H](CC(N)=O)NC(=O)[C@H]([C@@H](C)CC)NC(=O)[C@H](Cc3ccccc3)NC2=O)cc1 : 8.1
CCOc1ccc(C[C@H]2NC(=O)CC3(CCCCC3)SSC[C@@H](C(=O)N3CCC[C@H]3C(=O)NCCN)NC(=O)[C@H](CC(N)=O)NC(=O)[C@H](C(C)C)NC(=O)[C@H](Cc3ccccc3)NC2=O)cc1 : 7.64
CCOc1ccc(C[C@H]2NC(=O)CC3(CCCCC3)SSC[C@@H](C(=O)N3CCC[C@H]3C(=O)NCCNC(=O)[C@H](N)CCCCN)NC(=O)[C@H](CC(N)=O)NC(=O)[C@H](C(C)C)NC(=O)[C@H](Cc3ccccc3)NC2=O)cc1 : 7.78
CCOc1ccc(C[C@H]2NC(=O)CC3(CCCCC3)SSC[C@@H](C(=O)NCCNC(=O)[C@@H](N)CCCN)NC(=O)[C@H](CC(N)=O)NC(=O)[C@H](C(C)C)NC(=O)[C@H](Cc3ccccc3)NC2=O)cc1 : 7.55
CCOc1ccc(C[C@H]2NC(=O)CC3(CCCCC3)SSC[C@@H](C(=O)NCCNC(=O)[C@H](CCCN=C(N)N)NC(=O)[C@@H](N)CCCN=C(N)N)NC(=O)[C@H](CC(N)=O)NC(=O)[C@H](C(C)C)NC(=O)[C@H](Cc3ccccc3)NC2=O)cc1 : 7.61
CCOc1ccc(C[C@H]2NC(=O)CC3(CCCCC3)SSC[C@@H](C(=O)N3CCC[C@H]3C(=O)N[C@@H](CCCN=C(N)N)C(=O)NCC(N)=O)NC(=O)[C@H](CC(N)=O)NC(=O)[C@H]([C@@H](C)CC)NC(=O)[C@H](Cc3ccccc3)NC2=O)cc1 : 7.75

All figures here come from ChEMBL document CHEMBL1125323.
